# Species on record: Mus musculus
# Assay type: functional
# Description: Anticonvulsant activity against tonic extension produced by maximal electroshock in mice, at 30 min postadministration
Result Type: MAD

Data request: Using known records, supply MAD for Cc1cccc(C)c1NC(=O)Nc1ccccn1
Data returned: >300 mg/kg

Data request: Using known records, supply MAD for O=C(Nc1ccncc1)Nc1ccccc1O
Data returned: >300 mg/kg

Data request: Using known records, supply MAD for Cc1cccc(NC(=O)Nc2ccncc2)c1
Data returned: >300 mg/kg

Data request: Using known records, supply MAD for COc1cc(C)c(NC(=O)Nc2ccncc2)c(C)c1
Data returned: >300 mg/kg

Data request: Using known records, supply MAD for O=C(Nc1ccncc1)Nc1ccc(Cl)cc1
Data returned: >300 mg/kg

Data request: Using known records, supply MAD for O=C(Nc1ccncc1)Nc1cccc([N+](=O)[O-])c1
Data returned: >300 mg/kg

Data request: Using known records, supply MAD for O=C(Nc1ccncc1)Nc1ccc(Oc2ccccc2)cc1
Data returned: >300 mg/kg

Data request: Using known records, supply MAD for Cc1ccc(NC(=O)Nc2ccncc2)c(C)c1
Data returned: >300 mg/kg

Data request: Using known records, supply MAD for O=C(Nc1ccncc1)Nc1ccccc1[N+](=O)[O-]
Data returned: >300 mg/kg

Data request: Using known records, supply MAD for O=C(Nc1ccncc1)Nc1c(Cl)cccc1Cl
Data returned: >300 mg/kg

Data request: Using known records, supply MAD for Nc1ccccc1NC(=O)Nc1ccncc1
Data returned: >300 mg/kg

Data request: Using known records, supply MAD for O=C(Nc1ccncc1)Nc1ccccc1C(=O)O
Data returned: >300 mg/kg

Data request: Using known records, supply MAD for Cc1cccc(Cl)c1NC(=O)Nc1c(C)cccc1Cl
Data returned: >300 mg/kg

Data request: Using known records, supply MAD for Cc1ccccc1NC(=O)Nc1ccncc1
Data returned: >300 mg/kg

Data request: Using known records, supply MAD for O=C(Nc1cccnc1)Nc1c(Cl)cccc1Cl
Data returned: 300 mg/kg

Data request: Using known records, supply MAD for O=C(Nc1ccncc1)Nc1ccccc1OCc1ccccc1
Data returned: 30 mg/kg

Data request: Using known records, supply MAD for CC(C)c1ccccc1NC(=O)Nc1ccncc1
Data returned: 300 mg/kg

Data request: Using known records, supply MAD for CC(C)c1ccc(NC(=O)Nc2ccncc2)cc1
Data returned: >300 mg/kg

Data request: Using known records, supply MAD for O=C(Nc1ccncc1)Nc1ccc([N+](=O)[O-])cc1
Data returned: >300 mg/kg

Data request: Using known records, supply MAD for CCOC(=O)c1ccccc1NC(=O)Nc1ccncc1
Data returned: >300 mg/kg

Data request: Using known records, supply MAD for Cc1cccc(Cl)c1NC(=O)Nc1ccccn1
Data returned: >300 mg/kg

Data request: Using known records, supply MAD for Nc1ccc(NC(=O)Nc2ccncc2)cc1
Data returned: 300 mg/kg

Data request: Using known records, supply MAD for CCc1cccc(CC)c1NC(=O)Nc1ccncc1
Data returned: 100 mg/kg

Data request: Using known records, supply MAD for Cc1cccc(C)c1NC(=O)Nc1cccnc1
Data returned: 300 mg/kg

Data request: Using known records, supply MAD for Cc1cccc(C)c1NC(=O)Nc1ccncc1
Data returned: 100 mg/kg

Data request: Using known records, supply MAD for Cc1cccc(Cl)c1NC(=O)Nc1ccncc1
Data returned: 300 mg/kg

Data request: Using known records, supply MAD for O=C(Nc1ccccn1)Nc1c(Cl)cccc1Cl
Data returned: 100 mg/kg

Data request: Using known records, supply MAD for CC(=O)c1ccc(NC(=O)Nc2ccncc2)cc1
Data returned: >300 mg/kg
